# assay-summary: Population average serum elimination rate and half-life (linear mixed model, one compartment, first-order)
# applied-conditions: population average, model with original serum levels, age and sex as covariates
Listing: Constant elimination rate (95% CI) of selected molecules

Worked cases, Constant elimination rate (95% CI) given:
| molecule | observable | result |
| --- | --- | --- |
| O=S(=O)(O)C(F)(F)C(F)(F)C(F)(F)C(F)(F)C(F)(F)C(F)(F)C(F)(F)F [PFHpS, perfluoroheptane sulfonic acid] | Constant elimination rate (95% CI) | 0.48 (0.11, 0.84) yearly |
| O=C(O)C(F)(F)C(F)(F)C(F)(F)C(F)(F)C(F)(F)C(F)(F)C(F)(F)F [PFOA, perfluorooctanoic acid] | Constant elimination rate (95% CI) | 0.39 (0.3, 0.49) yearly |
| O=C(O)C(F)(F)C(F)(F)C(F)(F)C(F)(F)C(F)(F)C(F)(F)F [PFHpA, perfluoroheptanoic acid] | Constant elimination rate (95% CI) | 4.11 (3.13, 5.09) yearly |

Reported Constant elimination rate (95% CI) for O=S(=O)(O)C(F)(F)C(F)(F)C(F)(F)C(F)(F)C(F)(F)C(F)(F)C(F)(F)C(F)(F)F [L-PFOS, linear perfluorooctane sulfonic acid] : what is it?
0.24 (0.07, 0.4) yearly

Form field: reported Constant elimination rate (95% CI) of O=S(=O)(O)C(F)(F)C(F)(F)C(F)(F)C(F)(F)F [PFBS, perfluorobutane sulfonic acid]
5.96 (4.65, 7.27) yearly

# Constant elimination rate (95% CI) lookup, item O=S(=O)(O)C(F)(F)C(F)(F)C(F)(F)C(F)(F)C(F)(F)C(F)(F)F [PFHxS, perfluorohexane sulfonic acid]
0.24 (0.16, 0.33) yearly

# Constant elimination rate (95% CI) lookup, item O=S(=O)(O)C(F)(C(F)(F)F)C(F)(F)C(F)(F)C(F)(F)C(F)(F)C(F)(F)C(F)(F)F (centres unmarked) [1m-PFOS, perfluoro-1-methylheptanesulfonate]
0.55 (0.09, 1.01) yearly

Which Constant elimination rate (95% CI) is listed for O=S(=O)(O)C(F)(F)C(F)(F)C(F)(F)C(F)(F)C(F)(F)F [PFPeS, perfluoropentane sulfonic acid] ?
1.1 (0.68, 1.51) yearly

---

# assay-summary: PFAS levels in urine samples of airport employees, specific-gravity adjusted (LC/MS/MS)
# Format: in vivo, human
# applied-conditions: 2nd sampling (October 2018), count 17
# Method: Only one employee provided a single urine sample. […] All employees provided written informed consent. The samples were thawed 1–2 h, then mixed by vortex shaker and manual turning. […] Aliquots of 20μL of the sample were analyzed using LC/MS/MS. […] Urinary PFAS concentrations were specific-gravity adjusted. The ratio of urine and serum concentration for each PFAS (urine/serum ratio) at each sampling was calculated based on PFAS concentrations in paired serum and urine samples from 17 employees. […]
observable: Specific gravity adjusted urinary level, 25 percentile

| structure-notation | result |
| --- | --- |
| O=S(=O)(O)C(F)(F)C(F)(F)C(F)(F)C(F)(F)C(F)(F)C(F)(F)F | 0.06 ng/mL |
| O=C(O)C(F)(F)C(F)(F)C(F)(F)C(F)(F)C(F)(F)C(F)(F)C(F)(F)F | 0.02 ng/mL |
| O=S(=O)(O)C(F)(F)C(F)(F)C(F)(F)C(F)(F)C(F)(F)F | 0.06 ng/mL |
| O=C(O)C(F)(F)C(F)(F)C(F)(F)C(F)(F)C(F)(F)C(F)(F)F | 0.02 ng/mL |

Now examine the next entry.
Quick check: Specific gravity adjusted urinary level, 25 percentile of `O=S(=O)(O)C(F)(F)C(F)(F)C(F)(F)C(F)(F)C(F)(F)C(F)(F)C(F)(F)C(F)(F)F` ?
< LOD

---

# assay-summary: PFAS levels in urine samples of airport employees, specific-gravity adjusted (LC/MS/MS)
# Assay type: in vivo, human
# applied-conditions: 5th sampling (January 2019), count 12
observable: Specific gravity adjusted urinary level, 25 percentile (ng/mL)
Dear colleague, please return just the value in ng/mL, with no unit written.

| compound | quantitative-readout |
| --- | --- |
| O=C(O)C(F)(F)C(F)(F)C(F)(F)C(F)(F)C(F)(F)C(F)(F)C(F)(F)F [PFOA, perfluorooctanoic acid] | 0.03 |
| O=S(=O)(O)C(F)(F)C(F)(F)C(F)(F)C(F)(F)C(F)(F)F [PFPeS, perfluoropentane sulfonic acid] | 0.06 |

The record that follows has no Specific gravity adjusted urinary level, 25 percentile shown yet.
Any idea what Specific gravity adjusted urinary level, 25 percentile was measured for O=S(=O)(O)C(F)(F)C(F)(F)C(F)(F)C(F)(F)C(F)(F)C(F)(F)F [PFHxS, perfluorohexane sulfonic acid] ?
0.07

---

# assay-summary: Individual serum elimination rate and half-life (linear regression per employee)
# applied-conditions: human, serum, oral, HL (half-life), individual estimate, subject 13, 5 samples
observable: half-life (days)
Entry rule: numbers only, all in days.

| compound | units-label | half-life |
| --- | --- | --- |
| O=C(O)C(F)(F)C(F)(F)C(F)(F)C(F)(F)C(F)(F)C(F)(F)F [PFHpA, perfluoroheptanoic acid] | days | 36.5 |
| O=S(=O)(O)C(F)(F)C(F)(F)C(F)(F)C(F)(F)C(F)(F)C(F)(F)F [PFHxS, perfluorohexane sulfonic acid] | days | 511 |

Please turn your attention to the following entry.
What half-life value was documented for this compound, O=C(O)C(F)(F)C(F)(F)C(F)(F)C(F)(F)C(F)(F)C(F)(F)C(F)(F)F [PFOA, perfluorooctanoic acid] ?
584

---

# assay-summary: PFAS levels in serum samples of airport employees (LC/MS/MS)
# applied-conditions: 1st sampling (September 2018), count 17
observable: Serum PFAS level, Min
Please give the numeric answer without any surrounding text.

Examples with answers:
| molecule | Serum PFAS level, Min |
| --- | --- |
| O=C(O)C(F)(F)C(F)(F)C(F)(F)C(F)(F)C(F)(F)C(F)(F)F | 0.20 |
| O=S(=O)(O)C(F)(F)C(F)(F)C(F)(F)C(F)(F)C(F)(F)C(F)(F)C(F)(F)F | 0.49 |
| O=S(=O)(O)C(F)(F)C(F)(F)C(F)(F)C(F)(F)C(F)(F)F | 3.6 |
| O=C(O)C(F)(F)C(F)(F)C(F)(F)C(F)(F)C(F)(F)C(F)(F)C(F)(F)F | 5.0 |
| O=S(=O)(O)C(F)(F)C(F)(F)C(F)(F)C(F)(F)C(F)(F)C(F)(F)C(F)(F)C(F)(F)F | 5.5 |
| O=S(=O)(O)C(F)(C(F)(F)F)C(F)(F)C(F)(F)C(F)(F)C(F)(F)C(F)(F)C(F)(F)F (stereo not drawn) [1m-PFOS, perfluoro-1-methylheptanesulfonate] | 0.32 |
| O=S(=O)(O)C(F)(F)C(F)(F)C(F)(F)C(F)(F)C(F)(F)C(F)(F)F | 21 |
| O=C(O)C(F)(F)C(F)(F)C(F)(F)C(F)(F)C(F)(F)F | 0.16 |

Note: attention shifts to another entry.
# lookup: Serum PFAS level, Min of `O=S(=O)(O)C(F)(F)C(F)(F)C(F)(F)C(F)(F)F`
0.22

---

# assay-summary: PFAS levels in serum samples of airport employees (LC/MS/MS)
# applied-conditions: 5th sampling (January 2019), count 16
observable: Serum PFAS level, Min

| compound | result |
| --- | --- |
| O=C(O)C(F)(F)C(F)(F)C(F)(F)C(F)(F)C(F)(F)C(F)(F)F | < LOD |
| O=S(=O)(O)C(F)(F)C(F)(F)C(F)(F)C(F)(F)F | < LOD |
| O=S(=O)(O)C(F)(C(F)(F)F)C(F)(F)C(F)(F)C(F)(F)C(F)(F)C(F)(F)C(F)(F)F (stereo not drawn) [1m-PFOS, perfluoro-1-methylheptanesulfonate] | 0.26 |

---

Each item that follows carries a reported Half-life (95% CI).
# assay-summary: Population average serum elimination rate and half-life (linear mixed model, one compartment, first-order)
# applied-conditions: population average, model with serum levels after subtraction of background exposure (sensitivity analysis)

| compound | Half-life (95% CI) |
| --- | --- |
| O=S(=O)(O)C(F)(F)C(F)(F)C(F)(F)C(F)(F)C(F)(F)F | 0.63 (0.46, 1.01) year |

Recorded Half-life (95% CI) for O=S(=O)(O)C(F)(C(F)(F)F)C(F)(F)C(F)(F)C(F)(F)C(F)(F)C(F)(F)C(F)(F)F (stereo not shown) [1m-PFOS, perfluoro-1-methylheptanesulfonate] , please?
0.92 (0.51, 4.77) year

Name the recorded Half-life (95% CI) for `O=S(=O)(O)C(F)(F)C(F)(F)C(F)(F)C(F)(F)C(F)(F)C(F)(F)C(F)(F)F` .
1.35 (0.77, 5.71) year

Which Half-life (95% CI) value belongs to `O=S(=O)(O)C(F)(F)C(F)(F)C(F)(F)C(F)(F)C(F)(F)C(F)(F)C(F)(F)C(F)(F)F` ?
1.69 (0.98, 6.04) year

src = paper PMC7351026
